System: Male albino rats
Assay: Blood clotting time in albino rats, 2 hours after dosing
Format: in vivo, rat
Conditions: 20 mg/kg as aspirin, 2 hours (±10 minutes) after dosing
Protocol: Aspirin served as positive control. Male albino rats were exposed to aspirin and to 3 new formulations of amino acid derivatives of aspirin derivatives at one dose level of 20 mg/kg body weight. […]. The doses were expressed as aspirin molar equivalents. […]
Hi there, I'd appreciate the recorded Mean Clotting Time (± S.D.) for every entry that follows.
Numbers only, in min.

Worked cases, answers included:
CC(=O)Oc1ccccc1C(=O)OC[C@H](N)C(=O)O : 3.8
CC(=O)Oc1ccccc1C(=O)O [acetylsalicylic acid, reference compound] : 5.4
CC(=O)Oc1ccccc1C(=O)OC1CN[C@H](C(=O)O)C1 (stereo partly shown) : 4.2

Query (compound): CC(=O)Oc1ccccc1C(=O)O[C@H](C)[C@H](N)C(=O)O ; field requested: Mean Clotting Time (± S.D.)
5.3
